- Assayed target: 5-HT4 receptor (Cavia porcellus, UniProt O70528)
- Construct: crude synapse membrane sample was prepared from guinea pig striatum; from tissue; host or cells: guinea pig striatum, crude synaptic membranes
- Sequence (O70528 whole entry): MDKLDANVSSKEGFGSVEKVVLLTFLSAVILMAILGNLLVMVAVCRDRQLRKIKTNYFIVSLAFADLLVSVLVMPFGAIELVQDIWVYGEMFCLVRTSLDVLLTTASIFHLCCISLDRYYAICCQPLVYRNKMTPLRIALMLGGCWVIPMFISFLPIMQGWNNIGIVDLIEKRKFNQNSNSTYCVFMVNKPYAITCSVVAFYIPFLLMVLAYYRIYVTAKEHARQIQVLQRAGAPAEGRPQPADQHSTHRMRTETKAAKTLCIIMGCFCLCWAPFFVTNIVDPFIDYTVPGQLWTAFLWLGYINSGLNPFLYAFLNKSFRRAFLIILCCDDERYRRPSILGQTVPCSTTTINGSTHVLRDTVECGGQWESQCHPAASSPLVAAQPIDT
- Measurement notes: biochemical
- Type: binding, guinea pig
- Condition details: [3H]GR113808 0.1 nM, guinea pig striatum membranes, 37°C, 30 min; IC50 converted to Ki; read-out: Affinity for receptor (Ki value, nM) 5-HT4
Experimental endpoint: Ki (nM)

a. COc1cc(N)c(Cl)cc1C(=O)NCC1CCN(CCCCCOCc2ccccc2)CC1
b. CCN(CCCCCCN1CCC(CNC(=O)c2cc(Cl)c(N)cc2OC)CC1)Cc1ccccc1
Qu. Hi! Which is lower in terms of Ki, the first one a or the second one b ? To answer, give the label that identifies your chosen option.
Ans. b
